tested on: PPARg:RXRa DBDmut IVT, anti-RXR (DBD mutation: RXRa K156A/R161A, NR concentration 270 nM, RXRa partner concentration 90 nM); assay: PBM binding z-score (relative to random genomic background probes); higher = stronger binding; sequences stand for … in GC…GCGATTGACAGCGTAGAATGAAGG
Answer class 0 if PBM binding z-score is under 3, and class 1 if it is 3 or more.

Record excerpt, results attached:
CCTACTAGGCCATTCAGAGGTCATTGATCATATG : class 1
CGAACTAGGTCATCCAGGACAATGAATACATTGA : class 1
TTACCAAGGTGTAGGTCGTTGATCCCTCTGTAGA : class 0

Answer whether PBM binding z-score of TCATGTAGGTAAAAGGTGAAAGTCGGTGTGGTAA is greater than or equal to 3. class 1

Answer whether PBM binding z-score of TGTCAAAGTTCGAAGGTAACGTAAGTATCCACAC is greater than or equal to 3. class 0

Answer whether PBM binding z-score of CCTACTGGGCCATTCAGAGGTGATTGATCATATG is greater than or equal to 3. class 1

Just for reference, the supplement of paper PMC6555819 is where these values come from.
